- Measurement target: RBA2 (rice bran lectin 2) (Oryza sativa)
- Construct: gene Os04g0173800; noncovalent homodimer of 12-kDa subunits, 25 kDa
- Sequence (Q0JF21 123-201): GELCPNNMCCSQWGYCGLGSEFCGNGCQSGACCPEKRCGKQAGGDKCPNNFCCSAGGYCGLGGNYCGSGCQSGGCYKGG
- Test description: hemagglutination inhibition (rabbit erythrocytes)
- Format: biochemical
- Experimental parameters: pH 7.5, room temperature, 2-fold serial dilution
RBA2 values for the molecules below.

Molecule	RBA2 [mM]
CC(=O)N[C@H]1[C@H](O[C@H]2[C@H](O)[C@@H](NC(C)=O)C(O)O[C@@H]2CO)O[C@H](CO)[C@@H](O[C@@H]2O[C@H](CO)[C@@H](O)[C@H](O)[C@H]2NC(C)=O)[C@@H]1O (stereo partly drawn)	0.39
CC(=O)N[C@H]1[C@H](O[C@H]2[C@H](O)[C@@H](NC(C)=O)[C@H](O[C@H]3[C@H](O)[C@@H](NC(C)=O)C(O)O[C@@H]3CO)O[C@@H]2CO)O[C@H](CO)[C@@H](O[C@@H]2O[C@H](CO)[C@@H](O[C@@H]3O[C@H](CO)[C@@H](O)[C@H](O)[C@H]3NC(C)=O)[C@H](O)[C@H]2NC(C)=O)[C@@H]1O (stereo partly drawn)	0.04
CC(=O)N[C@H]1C(O)O[C@H](CO)[C@@H](O)[C@@H]1O (stereo partly drawn)	50

* * *

Listing of entries alongside the reported RBA1.
- Measurement target: RBA1 (rice bran lectin 1) (Oryza sativa, UniProt Q0JF21)
- Construct: gene Os04g0173800; disulfide-linked heterodimer of 20- and 12-kDa subunits, 32-33 kDa
- Test description: hemagglutination inhibition (rabbit erythrocytes)
- Format: biochemical
- Experimental parameters: pH 7.5, room temperature, 2-fold serial dilution

Molecule	Unit annotation	Value relation sign	RBA1
CC(=O)N[C@H]1[C@H](O[C@H]2[C@H](O)[C@@H](NC(C)=O)[C@H](O[C@H]3[C@H](O)[C@@H](NC(C)=O)C(O)O[C@@H]3CO)O[C@@H]2CO)O[C@H](CO)[C@@H](O[C@@H]2O[C@H](CO)[C@@H](O[C@@H]3O[C@H](CO)[C@@H](O)[C@H](O)[C@H]3NC(C)=O)[C@H](O)[C@H]2NC(C)=O)[C@@H]1O (stereo partly drawn) [Penta-N-acetylchitopentaose]	mM	=	0.02
CC(=O)N[C@H]1[C@H](O[C@H]2[C@H](O)[C@@H](NC(C)=O)[C@H](O[C@H]3[C@H](O)[C@@H](NC(C)=O)C(O)O[C@@H]3CO)O[C@@H]2CO)O[C@H](CO)[C@@H](O[C@@H]2O[C@H](CO)[C@@H](O[C@@H]3O[C@H](CO)[C@@H](O[C@@H]4O[C@H](CO)[C@@H](O)[C@H](O)[C@H]4NC(C)=O)[C@H](O)[C@H]3NC(C)=O)[C@H](O)[C@H]2NC(C)=O)[C@@H]1O (stereo partly drawn) [Hexa-N-acetylchitohexaose]	mM	=	0.04
N[C@H]1C(O)O[C@H](CO)[C@@H](O)[C@@H]1O (stereo partly drawn) [D-Glucosamine]	mM	>	200
N[C@H]1C(O)O[C@H](CO)[C@H](O)[C@@H]1O (stereo partly drawn) [D-Galactosamine]	mM	>	200
CC(=O)N[C@H]1C(O)O[C@H](CO)[C@@H](O)[C@@H]1O (stereo partly drawn) [N-Acetyl D-glucosamine]	mM	=	25
CC(=O)N[C@H]1[C@H](O[C@H]2[C@H](O)[C@@H](NC(C)=O)C(O)O[C@@H]2CO)O[C@H](CO)[C@@H](O)[C@@H]1O (stereo partly drawn) [Di-N-acetylchitobiose]	mM	=	0.78
CC(=O)N[C@H]1[C@H](O[C@H]2[C@H](O)[C@@H](NC(C)=O)C(O)O[C@@H]2CO)O[C@H](CO)[C@@H](O[C@@H]2O[C@H](CO)[C@@H](O)[C@H](O)[C@H]2NC(C)=O)[C@@H]1O (stereo partly drawn) [Tri-N-acetylchitotriose]	mM	=	0.09
N[C@H]1[C@H](O[C@H]2[C@H](O)[C@@H](N)C(O)O[C@@H]2CO)O[C@H](CO)[C@@H](O)[C@@H]1O (stereo partly drawn) [Chitobiose]	mM	=	100
CC(=O)N[C@H]1[C@H](O[C@H]2[C@H](O)[C@@H](NC(C)=O)C(O)O[C@@H]2CO)O[C@H](CO)[C@@H](O[C@@H]2O[C@H](CO)[C@@H](O[C@@H]3O[C@H](CO)[C@@H](O)[C@H](O)[C@H]3NC(C)=O)[C@H](O)[C@H]2NC(C)=O)[C@@H]1O (stereo partly drawn) [Tetra-N-acetylchitotetraose]	mM	=	0.04

Sourced from paper PMC5454964
